Value source: ChEMBL document CHEMBL6092201

# ASSAYED_TARGET: Mu-type opioid receptor (Homo sapiens) (UniProt P35372)
# Sequence (P35372 whole entry): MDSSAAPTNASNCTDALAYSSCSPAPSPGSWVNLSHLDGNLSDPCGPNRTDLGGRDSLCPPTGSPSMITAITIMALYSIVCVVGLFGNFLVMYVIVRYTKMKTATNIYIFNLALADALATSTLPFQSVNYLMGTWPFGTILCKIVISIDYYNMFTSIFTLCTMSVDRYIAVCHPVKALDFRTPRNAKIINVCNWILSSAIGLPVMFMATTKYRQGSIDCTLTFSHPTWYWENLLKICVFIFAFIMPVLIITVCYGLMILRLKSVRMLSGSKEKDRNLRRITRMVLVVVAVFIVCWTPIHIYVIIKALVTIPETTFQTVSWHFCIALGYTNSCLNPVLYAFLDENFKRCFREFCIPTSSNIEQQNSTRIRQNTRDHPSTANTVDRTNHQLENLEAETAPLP
# TEST: Agonist activity at MOR (unknown origin) assessed as cAMP accumulation at 0.5 nM relative to control
# Type: functional
Kindly return 1 (yes) if reported Activity is no lower than 10%; return 0 (no) if it is lower.

# check: Activity of `CN(C)[C@H](CN/C(=N/C#N)NCCc1ccccc1)Cc1ccccc1` is greater than or equal to 10%
1 (yes)

Does the reported Activity for `COc1ccccc1N/C(=N\C#N)NC[C@H](Cc1ccc(O)cc1)N(C)C` fall at or above the 10% mark?
1 (yes)

Decide: Activity of CC(Cc1ccncc1)N/C(=N\C#N)NC[C@H](Cc1ccccc1)N(C)C (stereo not given in full) >= 10%?
0 (no)

Hello, I need to know if `CN(C)[C@H](CN/C(=N/C#N)NCCc1ccc(O)cc1)Cc1ccccc1` has measured Activity not below 10%. Thanks!
1 (yes)

Given CC(Cc1c[nH]c2ccccc12)N/C(=N\C#N)NC[C@H](Cc1ccccc1)N(C)C (stereo not given in full) , state whether its Activity is at least 10%.
1 (yes)

====

# ASSAYED_TARGET: UniProt:P35372
# TEST: Agonist activity at MOR (unknown origin) assessed as cAMP accumulation at 50 nM relative to control
# Assay type: functional
Kindly return Yes if reported Activity is no lower than 20%; return No if it is lower.

# count of solved cases: 6
molecule="COc1ccc2cc(CC(C)N/C(=N\\C#N)NC[C@H](Cc3ccccc3)N(C)C)ccc2c1 (stereo not given in full)" label_class=Yes
molecule=COc1cccc(CCN/C(=N\C#N)NC[C@H](Cc2ccccc2)N(C)C)c1 label_class=No
molecule="CC(Cc1c[nH]cn1)N/C(=N\\C#N)NC[C@H](Cc1ccccc1)N(C)C (stereo not given in full)" label_class=No
molecule="CC(Cc1cccs1)N/C(=N\\C#N)NC[C@H](Cc1ccccc1)N(C)C (stereo not given in full)" label_class=Yes
molecule=COc1ccccc1N/C(=N\C#N)NC[C@H](Cc1ccc(O)cc1)N(C)C label_class=Yes
molecule=CN(C)[C@H](CN/C(=N/C#N)NCCc1ccccc1)Cc1ccccc1 label_class=Yes

Reported Activity reaches at least 20% for `COc1ccc(CN/C(=N\C#N)NC[C@H](Cc2ccccc2)N(C)C)cc1` ?
No

Hello, I need to know if CC(Cc1ccsc1)N/C(=N\C#N)NC[C@H](Cc1ccccc1)N(C)C (stereo not given in full) has measured Activity not below 20%. Thanks!
No

Is Activity at least 20%? Consider CC(Cc1cccnc1)N/C(=N\C#N)NC[C@H](Cc1ccccc1)N(C)C (stereo not given in full)
No

====

# ASSAYED_TARGET: Mu-type opioid receptor (Homo sapiens) (UniProt P35372)
# TEST: Agonist activity at MOR (unknown origin) assessed as beta-arrestin2 recruitment at 1 uM incubated for 90 to 180 mins by chemiluminescence based microplate reader assay relative to control
# Format: functional
# PROTOCOL_CONDITIONS: time 90-180 min
QUANTITY: Activity (%)
Reply with just the number (in %).

molecule=CN(C)[C@H](CN/C(=N/C#N)NCCc1ccccc1)Cc1ccc(O)cc1 assayed_target="Mu-type opioid receptor (Homo sapiens) (UniProt P35372)" u=% assay_result=-0.7
molecule=COc1ccc(CN/C(=N\C#N)NC[C@H](Cc2ccc(O)cc2)N(C)C)cc1 assayed_target="Mu-type opioid receptor (Homo sapiens) (UniProt P35372)" u=% assay_result=-0.8
molecule=CN(C)[C@H](CN/C(=N/C#N)Nc1ccccc1)Cc1ccccc1 assayed_target="Mu-type opioid receptor (Homo sapiens) (UniProt P35372)" u=% assay_result=1.9
molecule="COc1ccc2cc(CC(C)N/C(=N\\C#N)NC[C@H](Cc3ccccc3)N(C)C)ccc2c1 (stereo not given in full)" assayed_target="Mu-type opioid receptor (Homo sapiens) (UniProt P35372)" u=% assay_result=-1
molecule=CN(C)[C@H](CN/C(=N/C#N)NCCc1ccc(O)cc1)Cc1ccccc1 assayed_target="Mu-type opioid receptor (Homo sapiens) (UniProt P35372)" u=% assay_result=-0.7

For reference, reported Activity for CC(Cc1c[nH]c2ccccc12)N/C(=N\C#N)NC[C@H](Cc1ccccc1)N(C)C (stereo not given in full) stands at -0.9

# Activity (molecule: `COc1cccc(CCN/C(=N\C#N)NC[C@H](Cc2ccccc2)N(C)C)c1` ) is -0.6

Reported Activity of `COc1ccccc1N/C(=N\C#N)NC[C@H](Cc1ccc(O)cc1)N(C)C` : -1

Entry CC(Cc1ccsc1)N/C(=N\C#N)NC[C@H](Cc1ccccc1)N(C)C (stereo not given in full) , Activity reported as -0.6

For reference, reported Activity for CC(Cc1cccnc1)N/C(=N\C#N)NC[C@H](Cc1ccccc1)N(C)C (stereo not given in full) stands at -0.9

Documented Activity of CC(Cc1ccncc1)N/C(=N\C#N)NC[C@H](Cc1ccccc1)N(C)C (stereo not given in full) : -0.9

The recorded Activity for entry CC(Cc1cccs1)N/C(=N\C#N)NC[C@H](Cc1ccccc1)N(C)C (stereo not given in full) equals -0.4

Lab note: `COc1ccc(CN/C(=N\C#N)NC[C@H](Cc2ccccc2)N(C)C)cc1` gave Activity of -0.6

For this molecule ( `COc1ccccc1N/C(=N\C#N)NC[C@H](Cc1ccccc1)N(C)C` ), measured Activity is 2
